Molecular target: SARS-CoV-2 3CL^pro (Severe acute respiratory syndrome coronavirus 2, UniProt P0DTD1)
assay.readout: IC50 (µM)
State just the number; it will be interpreted in µM.

INSERT INTO results (smiles_str, system_tested, reported_value) VALUES
  ('O=C(O)c1cc(O)c2c(c1)C(=O)c1cccc(O)c1C2=O', 'SARS-CoV-2 3CL^pro (Severe acute respiratory syndrome coronavirus 2, UniProt P0DTD1)', 4.6);

Here is another compound to look at.
Which IC50 is listed for `Cc1c(C(=O)O)c(O)cc2c1C(=O)c1c(O)cccc1C2=O` ? 37.2
